details: human
metricName: Hepatotoxicity (cytolytic)
No unit in the answer, please; the number alone is enough.

See these solved cases before continuing.
>>> testresult("Cc1cn([C@H]2C[C@H](F)[C@@H](CO)O2)c(=O)[nH]c1=O [ALOVUDINE]")
0
>>> testresult("N[C@@H](Cc1ccc(O)c(O)c1)C(=O)O [LEVODOPA]")
0
>>> testresult("O=C(Nc1ccc(Cl)cc1)NS(=O)(=O)c1ccc2c(c1)CCC2 [SULOFENUR]")
4
>>> testresult("O=C(O)[C@@H](S)[C@@H](S)C(=O)O")
0
>>> testresult("CC(C)(Sc1cc(C(C)(C)C)c(O)c(C(C)(C)C)c1)Sc1cc(C(C)(C)C)c(O)c(C(C)(C)C)c1 [PROBUCOL]")
0

Lab note: measured Hepatotoxicity (cytolytic) of Nc1cc(N2CCCCC2)nc(N)[n+]1[O-] [MINOXIDIL] was 0

Short answer for `CNC=O` : Hepatotoxicity (cytolytic) was 1

Sample Cc1cc(O)c(C(=O)N[C@@H](C(=O)N[C@@H]2C(=O)N3C(C(=O)O)=C(CSc4nnnn4C)CS[C@H]23)c2ccc(O)cc2)cn1 [CEFPIRAMIDE] ; Hepatotoxicity (cytolytic) observed: 1

Field Hepatotoxicity (cytolytic) (entry O[C@H]1[C@H]2[C@H](O)CCCN2C[C@H]1O [TRIDOLGOSIR] ) reads 0

Measured Hepatotoxicity (cytolytic) of C[C@]12CC[C@@H]3c4ccc(O)cc4CC[C@H]3[C@@H]1CC[C@@H]2O [ESTRADIOL] : 0

---

conditions: human
metricName: Hepatotoxicity (steatosis)
Hey, just send me the number, nothing else.

Recorded Hepatotoxicity (steatosis), per entry:
>>> testresult("CCCCN/C(=C1/C=C(Cl)C=CC1=O)c1ccccc1Cl")
0
>>> testresult("FC(F)OC(Cl)C(F)(F)F (configuration not stated) [ISOFLURANE]")
2
>>> testresult("CC(C)C[C@H]1C(=O)N2CCC[C@H]2[C@]2(O)O[C@](NC(=O)[C@@H]3C=C4c5cccc6[nH]c(Br)c(c56)C[C@H]4N(C)C3)(C(C)C)C(=O)N12 [BROMOCRIPTINE]")
0
>>> testresult("OCC(Br)(Br)Br [TRIBROMOETHANOL]")
9
>>> testresult("C[C@H](CCC(=O)O)[C@H]1CC[C@H]2[C@@H]3[C@H](O)C[C@@H]4C[C@H](O)CC[C@]4(C)[C@H]3CC[C@]12C [CHENODIOL]")
0

Looking up N=C(N)c1ccc(/C=C/c2ccc(C(=N)N)cc2O)cc1 [HYDROXYSTILBAMIDINE] , I see its Hepatotoxicity (steatosis) listed as 1

Hepatotoxicity (steatosis) in this record for CCC(=O)O[C@@H]1CC(=O)O[C@H](C)C/C=C/C=C/[C@H](O)[C@H](C)C[C@H](CC=O)[C@H](O[C@@H]2O[C@H](C)[C@@H](O[C@H]3C[C@@](C)(O)[C@@H](OC(=O)CC)[C@H](C)O3)[C@H](N(C)C)[C@H]2O)[C@H]1OC [MIDECAMYCIN] : 0

---

conditions: human
Where a name gives a salt, the structure may show the parent alone.
metricName: Hepatotoxicity (cytolytic)

>>> testresult("CN1CCC(=C2c3ccccc3CCc3sccc32)CC1")
0
>>> testresult("C#CCN(C)[C@H](C)Cc1ccccc1")
0
>>> testresult("CCNc1cccnc1N1CCN(C(=O)c2cc3cc(OC)ccc3[nH]2)CC1 [ATEVIRDINE MESYLATE]")
0
>>> testresult("C=C1c2cccc(O)c2C(=O)C2=C(O)[C@]3(O)C(=O)C(C(N)=O)=C(O)[C@@H](N(C)C)[C@@H]3[C@@H](O)[C@H]12")
1
>>> testresult("CCC[C@H](N[C@@H](C)C(=O)N1[C@H](C(=O)O)C[C@@H]2CCCC[C@@H]21)C(=O)OCC")
1

Entry `Cc1ccc(O)c2ncccc12` — recorded Hepatotoxicity (cytolytic) = 0

get_value(item= `O=c1[nH]cnc2c1ncn2[C@H]1CC[C@@H](CO)O1` , readout=Hepatotoxicity (cytolytic)) returns 21

Hepatotoxicity (cytolytic) reported for this molecule `CCC/C=C/C=C/C(=O)O[C@H]1/C(=C/C(=O)OC)C[C@H]2C[C@H]([C@@H](C)O)OC(=O)C[C@H](O)C[C@@H]3C[C@H](OC(C)=O)C(C)(C)[C@](O)(C[C@@H]4C/C(=C/C(=O)OC)C[C@H](/C=C/C(C)(C)[C@]1(O)O2)O4)O3` : 0

---

settings: human
metricName: Hepatotoxicity (cytolytic)

Before answering, review these 5 worked examples.
>>> testresult("COc1cc(NC(C)CCCN)c2ncccc2c1 (centres undefined)")
1
>>> testresult("COc1nc(C)nc(Cl)c1N=C1NCCN1")
1
>>> testresult("CN(C)CCC=C1c2ccccc2CCc2ccccc21")
9
>>> testresult("O=C(O)C[C@H](O)C[C@H](O)/C=C/c1c(C2CC2)nc2ccccc2c1-c1ccc(F)cc1")
0
>>> testresult("CCOC(=O)OC(C)OC(=O)[C@@H]1N2C(=O)[C@@H](/N=C/N3CCCCCC3)[C@H]2SC1(C)C (some centres undefined)")
0

Lab note: measured Hepatotoxicity (cytolytic) of `CC(=O)Nc1ccc(O)cc1` was 98

The recorded Hepatotoxicity (cytolytic) for Cc1ccc(S(=O)(=O)NC(=O)NC2CCCCC2)cc1N [METAHEXAMIDE] is 7

Lab note: measured Hepatotoxicity (cytolytic) of `CC(C)c1nc(N(C)S(C)(=O)=O)nc(-c2ccc(F)cc2)c1/C=C/[C@@H](O)C[C@@H](O)CC(=O)O` was 1

The recorded Hepatotoxicity (cytolytic) for entry CN1CCN(CC(=O)N2c3ccccc3C(=O)Nc3cccnc32)CC1 [PIRENZEPINE] equals 0

---

conditions: human
Parameter threshold = 1. Response is Met when Hepatotoxicity (cytolytic) meets or exceeds it, else Not met.

# example entries with known answers
>>> categorylabel("CCN1CCN(C(=O)N[C@@H](C(=O)N[C@]2(OC)C(=O)N3C(C(=O)O)=C(CSc4nnnn4C)CS[C@@H]32)[C@H](C)O)C(=O)C1=O")
"Not met"
>>> categorylabel("CC(C)=CCN1CC[C@]2(C)c3cc(O)ccc3C[C@H]1[C@H]2C [(+)-PENTAZOCINE]")
"Not met"
>>> categorylabel("CC[C@H](C)C[C@H](C)CCCCCCCCC(=O)N[C@H]1C[C@@H](O)[C@@H](NCCN)NC(=O)[C@@H]2[C@@H](O)CCN2C(=O)[C@H]([C@H](O)CCN)NC(=O)[C@H]([C@H](O)[C@@H](O)c2ccc(O)cc2)NC(=O)[C@@H]2C[C@@H](O)CN2C(=O)[C@H]([C@@H](C)O)NC1=O")
"Not met"
>>> categorylabel("CC(CCc1ccccc1)NCC(O)c1ccc(O)c(C(N)=O)c1 (stereo unspecified)")
"Met"
>>> categorylabel("C#C[C@]1(O)CC[C@H]2[C@@H]3CCC4=CCCC[C@@H]4[C@H]3CC[C@@]21C")
"Not met"

Input line: State whether the measured Hepatotoxicity (cytolytic) reaches 1, counting equality as reaching it, for `CC(=O)[C@H]1CC[C@H]2[C@@H]3CCC4=CC(=O)CC[C@]4(C)[C@H]3CC[C@]12C`
Output line: Met

Input line: Has CCCCN(CCCC)CCC(O)c1cc2c(Cl)cc(Cl)cc2c2cc(C(F)(F)F)ccc12 (stereo unspecified) a recorded Hepatotoxicity (cytolytic) greater than or equal to 1?
Output line: Not met

---

conditions: human
Counter-ions that a name gives are not always drawn.
metricName: Hepatotoxicity (choleostasis)
Lab note: record the figure alone, no unit after it.

Below are worked cases with known answers.
>>> testresult("COCCCC/C(=N\\OCCN)c1ccc(C(F)(F)F)cc1")
2
>>> testresult("OC(c1cc(C(F)(F)F)nc2c(C(F)(F)F)cccc12)C1CCCCN1 (stereo not drawn)")
0
>>> testresult("CCNc1cccnc1N1CCN(C(=O)c2cc3cc(OC)ccc3[nH]2)CC1 [ATEVIRDINE MESYLATE]")
0
>>> testresult("CC(CCc1ccccc1)NCC(O)c1ccc(O)c(C(N)=O)c1 (stereo not drawn)")
0
>>> testresult("Nc1nc2[nH]cc(CCc3ccc(C(=O)N[C@@H](CCC(=O)O)C(=O)O)cc3)c2c(=O)[nH]1")
0

Now for the compound whose Hepatotoxicity (choleostasis) we want.
Hepatotoxicity (choleostasis) recorded for this compound, `COc1cc2oc(=O)c(C)c(C)c2cc1OCCCN1CCN(c2ccccc2OC)CC1` , is 0

---

Each entry below carries its recorded Hepatotoxicity (severe hepatitis).
details: human
Format: numeric value only, no unit, no commentary.

In the examples that follow, each entry is paired with its recorded Hepatotoxicity (severe hepatitis).
>>> testresult("PALIVIZUMAB")
0
>>> testresult("ADALIMUMAB")
0
>>> testresult("NADROPARIN CALCIUM")
0
>>> testresult("INTERFERON ALFA-N1")
0
>>> testresult("GEMTUZUMAB OZOGAMICIN")
1

In plain terms, INTERFERON GAMMA-1A has a documented Hepatotoxicity (severe hepatitis) of 1

Form field Hepatotoxicity (severe hepatitis), entry `ALDESLEUKIN` : 1

Note to self: Hepatotoxicity (severe hepatitis) recorded for `GALLIUM` was 0

INTERFERON ALFA-2A yielded Hepatotoxicity (severe hepatitis) of 2
